test system: rabbit skeletal myofibrils (fast skeletal myofibrils); assay: Activation of fast skeletal myofibrils (PUMA assay, PK/LDH-coupled ATPase at pCa25); format: biochemical; settings: median AC1.4 class, procedure of Example 39
Measurement kind: Mean AC1.4

Illustrative cases are given below, each with its answer.
CC(C)(CNc1ccc(-c2cc(C(N)=O)ccc2F)nn1)c1ncccc1Cl :: A (A=<1 uM)
NC(=O)c1cc(-c2ccc(NC3(c4ccc(F)cc4)CCC3)nn2)ccn1 :: B (B=1-10 uM)
CCOC(=O)c1sc(-c2ccc(NCC3(c4ncccc4F)CCC3)nn2)nc1O :: D (D=>20 uM)
NC(=O)c1cc(-c2ccc(NCC3(c4ncccc4F)CCC3)nn2)no1 :: A (A=<1 uM)
NC(c1cnc(-c2ccc(NCC3(c4ncccc4F)CCC3)nn2)s1)C(F)(F)F (stereo not shown) :: B (B=1-10 uM)

## Input Item NC(=O)Nc1ccc(-c2ccc(NC3(c4ccc(F)cc4)CCC3)nn2)cc1 : provide Mean AC1.4
## Output A (A=<1 uM)

## Input Provide only the value of recorded Mean AC1.4 for NC(=O)c1cc(-c2ccc(NCC3(c4ncccc4F)CCC3)nn2)n[nH]1
## Output B (B=1-10 uM)

## Input Query Mean AC1.4 for Fc1cccnc1C1(CNc2ccc(-c3ccc(N4CCOCC4)cc3)nn2)CCC1
## Output D (D=>20 uM)

## Input Tell us which Mean AC1.4 value is on record for CS(=O)(=O)Nc1cccc(-c2ccc(NC3(c4cccc(OC(F)F)n4)CCC3)nn2)c1
## Output A (A=<1 uM)

----------
tested on: rabbit skeletal myofibrils (fast skeletal myofibrils); test: Activation of fast skeletal myofibrils (PUMA assay, PK/LDH-coupled ATPase at pCa25); format: biochemical; conditions: median AC1.4 reported as class; procedure of Example 39
Measurement kind: Mean AC1.4

Worked cases, Mean AC1.4 given:
O=C(Nc1nccs1)c1ccc(NCC2(c3ncccc3F)CCC2)nn1 :: A (A=<1 uM)
CCOC(=O)Cc1csc(NC(=O)c2ccc(NCC3(c4ncccc4F)CCC3)nn2)n1 :: A (A=<1 uM)
NC1CCc2nc(-c3ccc(NCC4(c5ncccc5F)CCC4)nn3)sc2C1 (stereo not shown) :: D (D=>20 uM)
O=C(NC1COC1)c1cccc(-c2ccc(NC[C@]3(c4ncccc4F)C[C@H](F)C3)nn2)c1 :: B (B=1-10 uM)
O=C(NCC(F)F)c1ccc(F)c(-c2ccc(NC[C@]3(c4ncccc4F)C[C@H](F)C3)nn2)c1 :: B (B=1-10 uM)
Cc1cc(C(N)=O)c(O)c(-c2ccc(NCC3(c4ncccc4F)CCC3)nn2)c1 :: B (B=1-10 uM)

## Input Note down Mean AC1.4 recorded for O=C(NCc1ccn[nH]1)c1ccc(NCC2(c3ncccc3F)CCC2)nn1
## Output D (D=>20 uM)

## Input Read off the recorded Mean AC1.4 for COc1ncc(-c2ccc(NCC3(c4ncccc4F)CCC3)nn2)cc1C(N)=O
## Output C (C=10-20 uM)

## Input Fill in reported Mean AC1.4 for this entry: CNC(=O)c1cc2cc(-c3ccc(NC[C@]4(c5ncccc5F)C[C@H](F)C4)nn3)ccc2[nH]1
## Output A (A=<1 uM)

## Input Kindly indicate its recorded Mean AC1.4. Item: CNC(=O)c1cccc(-c2ccc(NC[C@]3(c4ncccc4F)C[C@H](F)C3)nn2)c1O
## Output A (A=<1 uM)

## Input Find the measured Mean AC1.4 of CNC(=O)c1cc(C)cc(-c2ccc(NC[C@]3(c4ncccc4F)C[C@H](F)C3)nn2)c1O and report it.
## Output B (B=1-10 uM)

## Input Name the recorded Mean AC1.4 of the item N#Cc1nc[nH]c1NC(=O)c1ccc(NCC2(c3ncccc3F)CCC2)nn1 in your answer.
## Output C (C=10-20 uM)

## Input Annotate the molecule CNC(=O)Nc1ccc(-c2ccc(NC[C@]3(c4ncccc4F)C[C@H](F)C3)nn2)c(F)c1 with its measured Mean AC1.4.
## Output A (A=<1 uM)

## Input Provide measured Mean AC1.4 value, entry: NC(=O)c1cc2cc(-c3ccc(NC[C@]4(c5ncccc5F)C[C@H](F)C4)nn3)ccc2[nH]1
## Output A (A=<1 uM)

## Input Identify measured Mean AC1.4 associated with O=C(NCC1(O)CC1)c1cccc(-c2ccc(NC[C@]3(c4ncccc4F)C[C@H](F)C3)nn2)c1
## Output A (A=<1 uM)

## Input Provide measured Mean AC1.4 value, entry: O=C(Nc1ccon1)c1ccc(NCC2(c3ncccc3F)CCC2)nn1
## Output B (B=1-10 uM)

## Input Name the recorded Mean AC1.4 of the molecule listed here: O=C(O)c1cc(-c2ccc(NCC3(c4ncccc4F)CCC3)nn2)c[nH]c1=O
## Output D (D=>20 uM)

## Input Identify the reported Mean AC1.4 for the following entry. O=C(O)c1cc2cc(-c3ccc(NC[C@]4(c5ncccc5F)C[C@H](F)C4)nn3)ccc2[nH]1
## Output B (B=1-10 uM)

## Input Specify reported Mean AC1.4 for the molecule shown: Fc1cccnc1C1(CNc2ccc(-c3ncc(CN4CCOCC4)s3)nn2)CCC1
## Output B (B=1-10 uM)

----------
test system: rabbit skeletal myofibrils (fast skeletal myofibrils); test: Activation of fast skeletal myofibrils (PUMA assay, PK/LDH-coupled ATPase at pCa25); assay type: biochemical; conditions: median AC1.4 reported as class; procedure of Example 39
Measurement kind: Mean AC1.4

These recorded examples may help you get a feel for the data.
CCOC(=O)c1coc(NC(=O)c2ccc(NCC3(c4ncccc4F)CCC3)nn2)n1 :: D (D=>20 uM)
NC(=O)c1cccc(-c2ccc(NCC3(c4ncccc4F)CCC3)nn2)c1O :: A (A=<1 uM)
CNC(=O)Nc1ccc(-c2ccc(NC[C@]3(c4ncccc4F)C[C@H](F)C3)nn2)cc1 :: A (A=<1 uM)
O=C(NC(CO)CO)c1cccc(-c2ccc(NC[C@]3(c4ncccc4F)C[C@H](F)C3)nn2)c1 :: B (B=1-10 uM)
COC(=O)c1cc2cc(-c3ccc(NC[C@]4(c5ncccc5F)C[C@H](F)C4)nn3)ccc2[nH]1 :: A (A=<1 uM)

## Input Answer with the recorded Mean AC1.4 of CNC(=O)Cc1cnc(-c2ccc(NCC3(c4ncccc4Cl)CCC3)nn2)s1 only.
## Output A (A=<1 uM)

## Input Complete the entry with Mean AC1.4 for NC(=O)c1ccc(O)c(-c2ccc(N3CC4(c5ncccc5F)CC3C4)nn2)c1
## Output D (D=>20 uM)

## Input Return value of Mean AC1.4 for input COc1ccc(-c2ccc(NC[C@]3(c4ncccc4F)C[C@H](F)C3)nn2)cc1C(N)=O , no commentary.
## Output B (B=1-10 uM)

## Input Give Mean AC1.4 for Nc1ncc(-c2ccc(NC[C@]3(c4ncccc4F)C[C@H](F)C3)nn2)cc1C(F)(F)F
## Output B (B=1-10 uM)

## Input Please supply the value of reported Mean AC1.4 for the item Cc1cc(-c2cccc(C(N)=O)c2)nnc1NCC1(c2ncccc2F)CCC1
## Output D (D=>20 uM)

## Input State its Mean AC1.4 for this compound: O=C(Nc1ncco1)c1ccc(NCC2(c3ncccc3F)CCC2)nn1
## Output D (D=>20 uM)

## Input Find the measured Mean AC1.4 of CCNC(=O)c1cc(-c2ccc(NC[C@]3(c4ncccc4F)C[C@H](F)C3)nn2)ccc1F and report it.
## Output C (C=10-20 uM)

## Input Give the reported value of Mean AC1.4 for this record: O=C(NCc1ccccn1)c1ccc(NCC2(c3ncccc3F)CCC2)nn1
## Output D (D=>20 uM)

----------
Tested on: rabbit skeletal myofibrils (fast skeletal myofibrils)
Test: Activation of fast skeletal myofibrils (PUMA assay, PK/LDH-coupled ATPase at pCa25)
Format: biochemical
Details: AC1.4 determined according to the procedure of Example 39; reported as class symbols
Text: Preparation of Fast Skeletal Myofibrils. […] Fast fiber activators were identified by measuring the enzymatic activity of muscle myofibril preparations using the proprietary PUMA™ (see, e.g., U.S. Pat. Nos. 6,410,254, 6,743,599, 7,202,051, and 7,378,254) assay system. […] This assay regenerates myosin-produced ADP into ATP by oxidizing NADH, producing an absorbance change at 340 nm. […]
Measurement kind: Mean AC1.4

Nc1n[nH]c2ccc(-c3ccc(NCC4(c5ccc(F)cc5)CC4)nn3)cc12 :: A (A=<1 uM)
CC(C)(CNc1ccc(-c2cncc(C(N)=O)c2)nn1)c1ccc(F)cc1 :: B (B=1-10 uM)
Nc1n[nH]c2ccc(-c3ccc(NCC4(c5ccc(F)cc5)CCCC4)nn3)cc12 :: A (A=<1 uM)
CC(C)(CNc1ccc(-c2ccc3c(N)n[nH]c3c2)nn1)c1ncccc1F :: B (B=1-10 uM)
Fc1ccc(C2(CNc3ccc(-c4ccc5cn[nH]c5c4)nn3)CCC2)cc1 :: A (A=<1 uM)
CC(C)(CNc1ccc(-c2cccc(C(=O)N3CCCCC3)c2)nn1)c1ccc(F)cc1 :: B (B=1-10 uM)
Oc1cccc(C2(CNc3ccc(-c4ccc5[nH]ncc5c4)nn3)CCC2)n1 :: D (D=>20 uM)
Nc1n[nH]c2ccc(-c3ccc(NCC4(c5ccc(F)cc5)CCC4)nn3)cc12 :: A (A=<1 uM)
CC(CNc1ccc(-c2cccc(C(N)=O)c2)nn1)c1ccccc1 (stereo not shown) :: B (B=1-10 uM)

// moving on: another record for Mean AC1.4
## Input Report value: Mean AC1.4, system: rabbit skeletal myofibrils (fast skeletal myofibrils), molecule: CC(C)(CNc1ccc(C(=O)Nc2ccn[nH]2)nn1)c1ccc(F)cc1
## Output D (D=>20 uM)
